- experimentalSystem: recombinant human IL-13 (human, UniProt P35225 35-146)
- Sequence (P35225 35-146 limits assumed): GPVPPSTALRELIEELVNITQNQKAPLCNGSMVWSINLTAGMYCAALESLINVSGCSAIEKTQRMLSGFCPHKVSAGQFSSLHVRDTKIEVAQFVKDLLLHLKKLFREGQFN
- assayProtocol: cell-based or functional assay
outcomeMeasure: HEK-IL-13 [nM] (IC50, STAT6 reporter) (nM)
Output spec: scalar in nM, unitless text.

# example entries with known answers
binder: BDG38.090 (antibody, V domains shown, IgG1) VH: QMQLVESGGGVVQPGRSLTLSCAASGFEFRTYGMHWVRQAPGKGLEWLGVIWDDGSNTHYADSVKGRFTITRDNSKNTLNLQMNSLRVEDTAVYYCARAPQWYLTAEAFDLWGQGTMVTVSS VL: SYILTQPPSVSVAPGETARITCGGNLIGARLVHWYQQKPGQAPVLVVYDDSDRPSRIPERFSGSNIGNTATLTIEDVEEGDEADYYCQVWDYYSDHMVFGGGTKLTVL
HEK-IL-13 [nM] (IC50, STAT6 reporter) [nM]: 0.103
--
binder: BDG38.098 (antibody, V domains shown, IgG1) VH: QMQLVESGGGVVQPGRSLTLSCAASGFEFRTYGMHWVRQAPGKGLEWVAVIWDDGSNTVYADSVKGRFTITRDNSKNTLNLQMNSLRVEDTAVYYCVRAPQWYLTAEAFDLWGQGTMVTVSS VL: SYVLTQPPSVSVAPGQTATITCGGNLIGARLVHWYQQKPGQAPVLVIYDDSDRPSRIPERFSGSNIGNTATLTISRVEAGDEADYYCQVWDYSSDSMVFGGGTKLTVL
HEK-IL-13 [nM] (IC50, STAT6 reporter) [nM]: 0.0884

Now consider a different binder.
Exercise: Please look at this binder and report its HEK-IL-13 [nM] (IC50, STAT6 reporter): BDG38.129 (antibody, V domains shown, IgG1) VH: QMQLVESGGGVVQPGRSLTLSCAASGFEFRTYGMHWVRQAPGKGLEWVGVIWDDGSNTHYADSVKGRFTITRDNSKNTLNLQMNSLRVEDTAVYYCARAPQWYLTAEAFDLWGQGTMVTVSS VL: SYILTQPPSVSVAPGQTATITCGGNLIGAKLVHWYQQKPGQAPVLVIYDDSDRPSRIPERFSGSNIGNTATLTISDVEEGDEADYYCQVWDYSSDHMVFGGGTKLTVL
Key: 0.0725

These measurements were taken from patent US20240059769A1.
